Listing: pIC50 of selected compounds
Test system: MV4;11 cells
Assay: Cell viability assay (CellTiter-Glo) in MV4;11 cells, alone or with gilteritinib
Format: cell-based
Details: Homo sapiens, 72 h; MV4;11 cells, with gilteritinib 10 nM, three days, CellTiter-Glo; read-out: MV4; 11 IC50 gilteritinib
pIC50: −log10 of the molar value.

Recorded pIC50, per entry:
O=C1CCC(N2C(=O)c3ccc(NCCCC(=O)N4CCN(c5ccccc5)CC4)cc3C2=O)C(=O)N1 (stereo not shown): < 6.00
O=C1CCC(N2C(=O)c3ccc(NCCNc4cccc(N5CCC(c6nccs6)CC5)c4)cc3C2=O)C(=O)N1 (stereo not shown): > 8.00
O=C1CCC(N2Cc3ccc(CCCCCCC(=O)N4CCC(c5ccc(Cl)cc5)CC4)cc3C2=O)C(=O)N1 (stereo not shown): > 8.00
O=C1CCC(N2C(=O)c3ccc(NCCNC4CC(n5cc(-c6cnc7ccccc7n6)cn5)C4)cc3C2=O)C(=O)N1 (stereo not shown): < 6.00
O=C1CCC(N2C(=O)c3ccc(NCCCCC(=O)N4CCC(c5ccccc5)CC4)cc3C2=O)C(=O)N1 (stereo not shown): 6.00 to 7.00

Query: // returns reported pIC50 for input CN(c1ccccc1)C1CCN(CC(=O)NCCNc2ccc3c(c2)C(=O)N(C2CCC(=O)NC2=O)C3=O)CC1 (stereo not shown)
Reply: < 6.00

Query: // returns reported pIC50 for input O=C1CCC(N2C(=O)c3ccc(NCCNc4cccc(N5CCC(n6cc(-c7cnc8cccc(Br)c8n7)cn6)CC5)c4)cc3C2=O)C(=O)N1 (stereo not shown)
Reply: > 8.00

----------
Tested on: MOLM-13 cells
Assay: Cell viability assay (CellTiter-Glo) in MOLM-13 cells, alone or with gilteritinib
Format: cell-based
Settings: Homo sapiens, MOLM-13, 72 h, MOLM-13 cells, compound alone (without gilteritinib), three days, CellTiter-Glo; read-out: MOLM-13 IC50
Listing: IC50 of selected compounds

Recorded IC50, per entry:
O=C1CCC(N2C(=O)c3ccc(NCCC[C@H]4C[C@H](n5cc(-c6cnc7ccc(CN8CCOCC8)cc7n6)cn5)C4)cc3C2=O)C(=O)N1 (stereo partly drawn): 100 to 1000 nM
O=C1CCC(N2Cc3cc(OCCCCC(=O)N4CCC(n5cc(-c6cnc7ccccc7n6)cn5)CC4)ccc3C2=O)C(=O)N1 (stereo not drawn): 100 to 1000 nM
O=C1CCC(N2C(=O)c3ccc(NC[C@H]4C[C@H](n5cc(-c6cccc(NC7CC(O)C7)n6)c(C6CC6)n5)C4)cc3C2=O)C(=O)N1 (stereo partly drawn): > 1000 nM

Query: // returns reported IC50 for input O=C1CCC(N2C(=O)c3ccc(NC4CC5(C4)CC(n4cc(-c6cnc7ccccc7n6)cn4)C5)cc3C2=O)C(=O)N1 (stereo not drawn)
Reply: > 1000 nM

Query: // returns reported IC50 for input O=C1CCC(N2C(=O)c3ccc(NCCCNC(=O)N4CCC(n5cc(-c6cnc7ccccc7n6)cn5)CC4)cc3C2=O)C(=O)N1 (stereo not drawn)
Reply: < 10 nM

Query: // returns reported IC50 for input O=C1CCC(N2Cc3ccc(CCCCCCC(=O)N4CCC(n5cc(-c6cnc7ccccc7n6)cn5)CC4)cc3C2=O)C(=O)N1 (stereo not drawn)
Reply: 10 to 100 nM

Query: // returns reported IC50 for input CNc1ccc(-c2cn([C@H]3C[C@H](CNc4ccc5c(c4)C(=O)N(C4CCC(=O)NC4=O)C5=O)C3)nc2C2CC2)nc1 (stereo partly drawn)
Reply: > 1000 nM

Query: // returns reported IC50 for input O=C1CCC(N2C(=O)c3ccc(NCCC[C@H]4C[C@H](n5cc(-c6cccc(N7CCC7)n6)cn5)C4)cc3C2=O)C(=O)N1 (stereo partly drawn)
Reply: 100 to 1000 nM

Query: // returns reported IC50 for input O=C1CCC(N2C(=O)c3ccc(NC(=O)CCCCC(=O)N4CCC(n5cc(-c6cnc7ccccc7n6)cn5)CC4)cc3C2=O)C(=O)N1 (stereo not drawn)
Reply: > 1000 nM

----------
System: MOLM-13 cells
Test: Cell viability assay (CellTiter-Glo) in MOLM-13 cells, alone or with gilteritinib
Type: cell-based
Details: Homo sapiens, MOLM-13, 72 h, MOLM-13 cells, compound alone (without gilteritinib), three days, CellTiter-Glo; read-out: MOLM-13 IC50
Listing: IC50 of selected molecules

Recorded IC50, per entry:
O=C1CCC(N2C(=O)c3ccc(NCCC[C@H]4C[C@H](n5cc(-c6cccc(N7CCOCC7)n6)cn5)C4)cc3C2=O)C(=O)N1 (stereo partly shown) [GS-217]: 100 to 1000 nM
CN1CCN(c2ccc3ncc(-c4cnn(CCCCCCNc5ccc6c(c5)C(=O)N(C5CCC(=O)NC5=O)C6=O)c4)nc3c2)CC1 (stereo not shown) [GS-529]: > 1000 nM
O=C1CCC(N2C(=O)c3ccc(NC[C@H]4C[C@H](n5cc(-c6cc7cc[nH]c7cn6)c(C6CC6)n5)C4)cc3C2=O)C(=O)N1 (stereo partly shown) [GS-279]: > 1000 nM

Query: // returns reported IC50 for input O=C1CCC(N2C(=O)c3ccc(NCCCCCC4(N5CCC(n6cc(-c7cnc8ccccc8n7)cn6)CC5)CC4)cc3C2=O)C(=O)N1 (stereo not shown) [GS-123]
Reply: > 1000 nM

----------
Tested on: MOLM-13 cells
Assay: Cell viability assay (CellTiter-Glo) in MOLM-13 cells, alone or with gilteritinib
Type: cell-based
Details: Homo sapiens, MOLM-13, 72 h, MOLM-13 cells, compound alone (without gilteritinib), three days, CellTiter-Glo; read-out: MOLM-13 IC50
pIC50: −log10 of the molar value.
Assay endpoint: pIC50

Recorded pIC50, per entry:
O=C1CCC(N2Cc3ccc(CCCCCC(=O)N4CCC(c5cccc(Cl)c5)CC4)cc3C2=O)C(=O)N1 (stereo not shown): < 6.00
O=C1CCC(N2C(=O)c3cccc(NCCCC4CC(n5cc(-c6cnc7ccccc7n6)cn5)C4)c3C2=O)C(=O)N1 (stereo not shown): < 6.00
O=C1CCC(N2C(=O)c3ccc(NCCCCCC(=O)c4ccc(-n5cccn5)cc4)cc3C2=O)C(=O)N1 (stereo not shown): < 6.00
O=C1CCC(N2C(=O)c3ccc(NCCC[C@H]4C[C@H](n5cc(-c6cnc7c(N8CCOCC8)cccc7n6)cn5)C4)cc3C2=O)C(=O)N1 (stereo partly shown): 6.00 to 7.00
O=C1CCC(N2C(=O)c3ccc(NC[C@H]4C[C@H](n5cc(-c6ncccc6OC(F)(F)F)c(C6CC6)n5)C4)cc3C2=O)C(=O)N1 (stereo partly shown): > 8.00
CN(C)c1cccc(-c2cn([C@H]3C[C@H](CNc4ccc5c(c4)C(=O)N(C4CCC(=O)NC4=O)C5=O)C3)nc2C2CC2)n1 (stereo partly shown): 7.00 to 8.00

Moving on to another compound below.
Query: // returns reported pIC50 for input Cc1nc2ccccc2nc1-c1cnn(CCCCCCNc2ccc3c(c2)C(=O)N(C2CCC(=O)NC2=O)C3=O)c1 (stereo not shown)
Reply: 6.00 to 7.00

----------
Listing: pIC50 of selected compounds
System: MOLM-13 cells
Test: Cell viability assay (CellTiter-Glo) in MOLM-13 cells, alone or with gilteritinib
Format: cell-based
Details: Homo sapiens, MOLM-13, 72 h, MOLM-13 cells, compound alone (without gilteritinib), three days, CellTiter-Glo; read-out: MOLM-13 IC50
pIC50: −log10 of the molar value.

O=C1CCC(N2C(=O)c3ccc(NCCC[C@H]4C[C@H](n5cc(-c6cccc(N7CCOCC7)c6)cn5)C4)cc3C2=O)C(=O)N1 (some centres unmarked) [GS-241]: < 6.00
O=C1CCC(N2Cc3ccc(CCCCCCC(=O)N4CCC(c5ccccn5)CC4)cc3C2=O)C(=O)N1 (centres unmarked) [GS-111]: < 6.00

Moving on to another compound below.
Query: // returns reported pIC50 for input Cc1nn(C2CC(CCCNc3ccc4c(c3)C(=O)N(C3CCC(=O)NC3=O)C4=O)C2)c(C)c1-c1cnc2cccc(F)c2n1 (centres unmarked) [GS-156]
Reply: < 6.00

----------
System: MOLM-13 cells
Test: Cell viability assay (CellTiter-Glo) in MOLM-13 cells, alone or with gilteritinib
Format: cell-based
Settings: Homo sapiens, MOLM-13, 72 h, MOLM-13 cells, with gilteritinib 20 nM, three days, CellTiter-Glo; read-out: MOLM-13 IC50 gilteritinib
pIC50: −log10 of the molar value.
Assay endpoint: pIC50

Recorded pIC50, per entry:
CN1CCN(c2ccc3ncc(-c4cnn([C@H]5C[C@@H](CNc6ccc7c(c6)C(=O)N(C6CCC(=O)NC6=O)C7=O)C5)c4)nc3c2)CC1 (some centres unmarked): 6.00 to 7.00
O=C1CCC(N2C(=O)c3ccc(NCCC[C@H]4C[C@H](n5cc(-c6cnc7cc(N8CCOCC8)ccc7n6)cn5)C4)cc3C2=O)C(=O)N1 (some centres unmarked): > 8.00
O=C1CCC(N2Cc3ccc(CCCCCCC(=O)N4CCC(n5cc(-c6ccc7ccccc7n6)cn5)CC4)cc3C2=O)C(=O)N1 (centres unmarked): > 8.00
O=C1CCC(N2C(=O)c3ccc(NCCC[C@H]4C[C@H](n5cc(-c6cnc7c(N8CCOCC8)cccc7n6)cn5)C4)cc3C2=O)C(=O)N1 (some centres unmarked): 7.00 to 8.00

Moving on to another compound below.
Query: // returns reported pIC50 for input O=C1CCC(N2C(=O)c3ccc(NCCC[C@H]4C[C@H](n5cc(-c6cnc7cc(N8CCNCC8)ccc7n6)cn5)C4)cc3C2=O)C(=O)N1 (some centres unmarked)
Reply: > 8.00

Ref: patent US20240050428A1
